B1: SETD8 (parent)
chain: FVVEYHGDLIEITDAKKREALYAQ

Variants of: B1
protocol.description: protein stability index of a GFP-peptide fusion (GPS, HEK-293T) (PSI 1-6); higher = more stable;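 also: lentivirally expressed fusions sorted by FACS into six bins by GFP to DsRed ratio, PSI derived from sequencing read proportions per bin multiplied by bin number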
condition.description: c terminus: a fixed tail appended
result.type: protein stability index

>>> measured("I12Y")
1.56
>>> measured("R18V")
1.82
>>> measured("A23P")
1.89
>>> measured("Y5V")
2.06
>>> measured("A15T")
1.51
>>> measured("Q24G")
1.37
>>> measured("H6F")
2.12
>>> measured("A20E")
2.67
>>> measured("K16V")
1.76
>>> measured("A15R")
3.06
>>> measured("E19W")
1.96
>>> measured("R18L")
1.87
>>> measured("K16D")
2.05
>>> measured("F1L")
1.85
>>> measured("K16I")
1.78
>>> measured("I10S")
2.21
>>> measured("A15S")
1.88
>>> measured("Q24R")
2.89
>>> measured("V3D")
2.15
>>> measured("I12T")
2.02
>>> measured("K17F")
2.17
>>> measured("Q24I")
1.75
>>> measured("A20D")
2.48
>>> measured("A20R")
1.68
>>> measured("A23Q")
1.85
>>> measured("L21A")
2.01
>>> measured("A20T")
2.06
>>> measured("H6S")
2.31
>>> measured("E4Y")
1.72
>>> measured("E19S")
1.81
>>> measured("E4V")
1.6
>>> measured("A20S")
2.3
>>> measured("D8L")
2.85
>>> measured("V2W")
1.32
>>> measured("I10R")
1.82
>>> measured("E19R")
2.84
>>> measured("K16W")
3.04
>>> measured("E11C")
3.07
>>> measured("E4K")
1.45
>>> measured("V2G")
3.95
>>> measured("R18D")
2.27
>>> measured("A20V")
1.97
>>> measured("H6K")
1.74
>>> measured("L9M")
1.46
>>> measured("K16S")
2.59
>>> measured("E4A")
2.3
